Tested on: A549
procedure_details: Cytotoxicity assay by the CTG method, A549
Format: cell-based
measurement_setup: Homo sapiens, A549, Lung cancer, 72 h
quantity_name: IC50 (µM)
Field format: number, assumed µM, no unit text.

[Q] I would be grateful if you could share the reported IC50 for Cc1ccc(S(=O)(=O)Nc2nc3ccccc3nc2Nc2ccc3nsnc3c2)cc1F [Compound 4f] .
[A] 8.33

meta.source: patent US20200223839A1
